Reported melting point by item:

{"ITEM SMILES": "CN(C)S(=O)(=O)n1c(C(=S)NCO)nc2cc(Cl)c(Cl)cc21", "melting point": "140 to 142 °C"}
{"ITEM SMILES": "CC1(C)OC(c2ccc(S(C)(=O)=O)cc2)=C(c2ccc(O)cc2)C1=O", "melting point": "150 to 152 °C"}
{"ITEM SMILES": "CC(C)(C)c1cc(CCc2ccccc2NC(=O)NCc2ccccn2)cc(C(C)(C)C)c1O", "melting point": "189 to 190 °C"}

Need melting point, item CCC1(C(=O)C(=O)NC(C)(C)C)CC1
37.5 to 39 °C

Need melting point, item COc1ncnc(-c2cc(NS(C)(=O)=O)c(C#N)cc2F)c1C
218 to 220 °C

---

ATTRIBUTE MEASURED: melting point

{"COMPOUND": "CCOCC(O)(c1cccnc1)C(C)c1ccc(Cl)cc1Cl (configuration not stated)", "melting point": "86 °C"}
{"COMPOUND": "CC(C)(C)OC(=O)N1CCC(CBr)CC1", "melting point": "48 to 50 °C"}
{"COMPOUND": "CC(=O)N(CC1CC1)c1cccc(-c2ccc3nnc(C)n3n2)c1", "melting point": "118 to 121 °C"}
{"COMPOUND": "CCC(=O)N1N=C(c2ccc([N+](=O)[O-])cc2)c2cc(Cl)ccc2CC1C (configuration not stated)", "melting point": "160 to 161 °C"}
{"COMPOUND": "CC(=O)c1cccc(Nc2c3ccccc3nc3occc23)c1", "melting point": "158 to 159 °C"}

Need melting point, item OC(Cn1cncn1)(c1ccc(Cl)cc1)C(F)(F)F (configuration not stated)
117 to 118 °C

Need melting point, item Cc1cccc(Nc2n[nH]c(N=CN(C)C)c2C#N)c1
260 to 261 °C

Need melting point, item COc1cc(OC)c(C(=O)CCCCCl)cc1NC(=O)Nc1ccc(C(F)(F)F)cc1
154 to 156 °C

Need melting point, item Cc1cc2c(cc1C(C)O)OCO2 (configuration not stated)
61 to 62 °C

Need melting point, item Cn1nccc1C(=O)c1cc(O)c(O)c(Cl)c1Cl
202 to 204 °C

Need melting point, item O=C(Oc1ccccc1)OC1c2nccnc2C(=O)N1c1ccc(Cl)cn1 (configuration not stated)
193 °C

Need melting point, item CCC(=O)NCC(C)(C)c1ccc(C(=O)Nc2cn3cc(Cl)ccc3n2)cc1
225 to 227 °C

Need melting point, item Cc1nc([C@@H]2C[C@H]2c2ccc3ccccc3n2)cc(-n2nc(C)nc2C)n1 (relative stereo)
140 to 141 °C

Need melting point, item Cc1nc(C(=O)NS(=O)(=O)c2c(C)csc2C)no1
164 °C

Need melting point, item O=C(O)c1ccccc1-c1ccc(Cc2nc(-c3ccccc3)nc3ccccc23)cc1
210 °C

---

ATTRIBUTE MEASURED: melting point

Examples from the recorded data:
{"COMPOUND": "CCS(=O)(=O)c1ccc2c(c1)nc(CC(C)(C)C)n2CCOC(F)(F)F", "melting point": "133 °C"}
{"COMPOUND": "Cn1nc(-c2ccc(OC(F)(F)F)cc2)cc1CO", "melting point": "91 to 93 °C"}
{"COMPOUND": "N#Cc1cccc(-c2cc(-c3ccc(C#N)cc3Cl)no2)c1", "melting point": "221 to 223 °C"}
{"COMPOUND": "Cc1nc(-c2ccc(OC(C)C)cc2)sc1C(=O)O", "melting point": "186 to 188 °C"}
{"COMPOUND": "Cc1ccc(-c2nc(-c3ccc(C)cc3C)nc(-c3ccc(OCCCCCCO)cc3O)n2)c(C)c1", "melting point": "117 to 118 °C"}

Need melting point, item Cc1ccc(C(=O)n2nc(Nc3cccc(OCC#N)c3)nc2N)cc1
236 to 241 °C

Need melting point, item Fc1cc(Br)ccc1-c1ccc(Cl)cc1Cl
63 to 65 °C
